- assay.target: T1, His-tagged human HtrA1 protease domain (human, UniProt Q92743 161-367)
- T1 construct: His-tagged protease domain; also called huHtrA1-PD-His; huHtrA1-PD
- T1 sequence (Q92743 other isoform, or with tags, fused parts or gaps limits assumed): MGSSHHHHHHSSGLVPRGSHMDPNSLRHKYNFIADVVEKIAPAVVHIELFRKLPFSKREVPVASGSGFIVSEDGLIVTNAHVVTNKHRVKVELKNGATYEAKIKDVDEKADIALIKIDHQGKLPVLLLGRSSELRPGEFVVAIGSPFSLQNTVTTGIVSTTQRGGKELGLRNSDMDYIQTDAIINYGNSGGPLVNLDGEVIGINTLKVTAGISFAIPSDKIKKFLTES
- procedure.text: BIACORE T200 SPR; Fab analyte over huHtrA1-PD-His captured by anti-His antibody
The following binders are listed with their measured Kd values.
Express the result in nM but write the number alone.

Consider the worked cases shown below.
APEG.LC7.HC2 (Fab, V domains shown) VH: EVQLVQSGAEVKKPGASVKVSCKASGYTFRDSEMHWVRQAPGQGLEWIGGVDPETEGAAYNQKFKGRATITRDTSTSTAYLELSSLRSEDTAVYYCTRGYDYDYALDYWGQGTLVTVSS VL: DIQMTQSPSSLSASVGDRVTITCRASSSVNFIHWYQQKPGKAPKPLISATSNLASGVPSRFSGSGSGTDFTLTISSLQPEDFATYYCQQWYSAPWTFGQGTKVEIK :: 0.309
h15H6.v2 Fab (Fab, V domains shown, Tested as Fab; also called parent; parental Fab) VH: EVQLVQSGAEVKKPGASVKVSCKASGYTFTDSEMHWVRQAPGQGLEWIGGVDPETDGAAYNQKFKGRATITRDTSTSTAYLELSSLRSEDTAVYYCTRGYDYDYALDYWGQGTLVTVSS VL: DIQMTQSPSSLSASVGDRVTITCRASSSVNFIHWYQQKPGKAPKPLISATSNLASGVPSRFSGSGSGTDFTLTISSLQPEDFATYYCQQWSSNPWTFGQGTKVEIK :: 0.219
APEG.LC347.HC13 (Fab, V domains shown, single member of the group m82) VH: EVQLVQSGAEVKKPGASVKVSCKASGYKFKDSEMHWVRQAPGQGLEWIGGVDPETEGAAYNQKFKGRATITRDTSTSTAYLELSSLRSEDTAVYYCTRGYDYDYALDYWGQGTLVTVSS VL: DIQMTQSPSSLSASVGDRVTITCRASSSVEFIHWYQQKPGKAPKPLISATSHLASGVPSRFSGSGSGTDFTLTISSLQPEDFATYYCQQWYSAPWTFGQGTKVEIK :: 0.131

Read the next record carefully.
Fill in reported Kd for this entry: APEG.LC347.HC23 (Fab, V domains shown, single member of the group m82) VH: EVQLVQSGAEVKKPGASVKVSCKASGYKFRDSEMHWVRQAPGQGLEWIGGVDPETEGAAYNQKFKGRATITRDTSTSTAYLELSSLRSEDTAVYYCTRGYDYDYALDYWGQGTLVTVSS VL: DIQMTQSPSSLSASVGDRVTITCRASSSVEFIHWYQQKPGKAPKPLISATSHLASGVPSRFSGSGSGTDFTLTISSLQPEDFATYYCQQWYSAPWTFGQGTKVEIK
0.163
